Assay: Half life in ICR mouse at 20 mg/kg, po measured for 24 hrs by LC-MS/MS analysis
Assay type: ADME, organism-based
Conditions: in vivo
measured-attribute: half-life

CN(C(=O)[C@@H](NC(=O)C(F)(F)F)C1CC1)[C@@H](Cc1ccc(F)cc1)C(=O)N1C[C@]2(C[C@H]1C#N)C(=O)Nc1ccccc12 :: 2.58 h

Input: Determine from records and report half-life for N#C[C@@H]1C[C@@]2(CN1C(=O)[C@@H](CSCc1ccc(F)cc1)NC(=O)[C@@H](NC(=O)C(F)(F)F)C1CC1)C(=O)Nc1ccccc12
Output: 1.05 h

----------
Test: AUC (0 to infinity) in ICR mouse at 20 mg/kg, po measured for 24 hrs by LC-MS/MS analysis
Assay type: ADME, organism-based
Conditions: in vivo
measured-attribute: AUC(0-inf) (ng·h/mL)
Give bare numbers, in ng·h/mL.

CN(C(=O)[C@@H](NC(=O)C(F)(F)F)C1CC1)[C@@H](Cc1ccc(F)cc1)C(=O)N1C[C@]2(C[C@H]1C#N)C(=O)Nc1ccccc12 :: 1110

Would you kindly look at the next entry?
Input: Determine from records and report AUC(0-inf) for N#C[C@@H]1C[C@@]2(CN1C(=O)[C@@H](CSCc1ccc(F)cc1)NC(=O)[C@@H](NC(=O)C(F)(F)F)C1CC1)C(=O)Nc1ccccc12
Output: 972

// data source = ChEMBL document CHEMBL6087408
